Test system: Rattus norvegicus
assay.protocol: Percent change in total cholesterol (TC) in cholic acid (0.5%)-, cholesterol (1.5%) -, and peanut oil (5.5%)- fed rats at a dose 30 mg/kg.
Type: functional
test.readout: Change

Reference set, count: 8
| compound | test.readout | result |
| --- | --- | --- |
| CCCCCCCCCCCCc1nnn(C(C(=O)Nc2c(C(C)C)cccc2C(C)C)c2ccccc2)n1 (centres undefined) | Change | <77% |
| CCCCCCCCCCCCn1nnc(C(C(=O)Nc2ccc(F)cc2F)c2ccccc2)n1 (centres undefined) | Change | <70% |
| CCCCCCCCCCCCn1nnc(C(C(=O)Nc2c(OC)cc(OC)cc2OC)C2CCCCC2)n1 (centres undefined) | Change | <61% |
| CCCCCCCCCCCCn1nnc(C(Cc2ccccc2)C(=O)Nc2c(OC)cc(OC)cc2OC)n1 (centres undefined) | Change | <73% |
| CCCCCCCCCCCCn1nnc(C(C(=O)Nc2c(OC)cc(OC)cc2OC)c2ccccc2)n1 (centres undefined) | Change | <63% |
| CCCCCCCCCCCCn1nnc(C(C(=O)Nc2c(OC)cc(OC)cc2OC)c2ccc(N(C)C)cc2)n1 (centres undefined) | Change | <62% |
| CCCCCCCCCCCCn1nnc(C(C(=O)NC(C)(C)C)c2ccccc2)n1 (centres undefined) | Change | 1% |
| C=CCCCCCCCCCCn1nnc(C(C(=O)Nc2c(OC)cc(OC)cc2OC)c2ccccc2)n1 (centres undefined) | Change | <63% |

Okay, now this compound:
Incoming: Please give the documented Change of CCCCCCCCCCCCn1nnc(C(C(=O)Nc2c(C(C)C)cccc2C(C)C)c2nnn[nH]2)n1 (centres undefined)
Outgoing: <37%

The measured values listed here are drawn from ChEMBL document CHEMBL1129338.
